Ref: patent US5869494A

PROTOCOL: In vivo toxicity, single escalating oral dose
CONDITION_DETAILS: mouse, in vivo, BALB/c mice, read-out: single dose easily tolerated
MEASURED_PARAMETER: MTD

[ask] Fill in: MTD of CCCCN1C(=O)CC(=O)N(CCCC)C1=S [Compound C1] is ___
[reply] ≥ 1200 mg/kg
